System: MOLT-4
test_details: NCI tumour cell line growth inhibition, 48 h
Counter-ions that a name gives are not always drawn. Calls of active or inactive are those of the source. Rule as the data show it: active = GI50 up to about 1.1 µM and inactive = higher. Where a SMILES comes first, the peptide text is derived from it. The star is where a group is joined. Boc = CC(C)(C)OC(=O)*; OBn = c1ccc(CO*)cc1
Tick one outcome: active, inactive

Task: Test call for this compound, please: `CN(C)CCNc1ccc2c(=O)n(CCN(C)C)c(=O)n3c4ccc(O)cc4c(=O)c1c23`
Output: active

Task: Test call for this compound, please: `C=CCN1/C(=C(\C#N)c2nc3ccccc3[nH]2)Sc2c1nc[nH]c2=O`
Output: inactive

Task: Test call for this compound, please: `COc1cc2c3c(n(C)c(=O)c2cc1OC)-c1cc2c(cc1/C3=C\CCCCCBr)OCO2`
Output: inactive

Task: Test call for this compound, please: `COC(=O)C1([C@@H]2C[C@@H](O)[C@]3(C)CC/C=C(\C)CCC[C@H](C)[C@H](O)[C@@H]2O3)CC1`
Output: inactive

Task: Test call for this compound, please: `CC[n+]1c(/C=C/c2ccc(N(CCCl)CCCl)cc2)ccc2cc(Br)ccc21`
Output: inactive

Task: Test call for this compound, please: `O=[Se](O)O`
Output: inactive

Task: Test call for this compound, please: COC(=O)C1=CO[C@@H](C)[C@@H]2Cn3ccc4c5ccccc5nc-4c3C[C@H]12 [ALSTONINE HYDROCHLORIDE]
Output: inactive

Task: Test call for this compound, please: CC(C)CC(NC(=O)C(Cc1ccccc1)NC(=O)C(Cc1ccccc1)NC(=O)OC(C)(C)C)C(=O)OCc1ccccc1 (stereo not drawn) (Boc-Phe-Phe-Leu-OBn; configuration not given here)
Output: inactive

Task: Test call for this compound, please: `O=C1C=C(N2CCN(c3ncccn3)CC2)C(=O)c2c(O)ccc(O)c21`
Output: inactive

Task: Test call for this compound, please: COC(=O)C(Cc1cc(OC)c(OC)c(OC)c1)c1ccc(OC)cc1 (stereo not drawn)
Output: inactive

Task: Test call for this compound, please: `COP(=O)(OC)/C(=C/c1cn(C(c2ccccc2)(c2ccccc2)c2ccccc2)cn1)NC=O`
Output: inactive

Task: Test call for this compound, please: `NC(=O)NNC(=O)NC12CC3CC(CC(C3)C1)C2`
Output: inactive

Task: Test call for this compound, please: `CN(C)c1ccc(C(=NNC(=O)c2cc3ccccc3[nH]2)c2ccc(N(C)C)cc2)cc1`
Output: active

Task: Test call for this compound, please: `CCOC(=O)Nc1nn[nH]c1Cl`
Output: inactive

Task: Test call for this compound, please: `O=C(CSc1nc(-c2ccccc2)c(-c2ccccc2)[nH]1)NNC(=S)Nc1ccccc1`
Output: inactive

Task: Test call for this compound, please: `CC(/C=C/C(=O)c1sc(C(N)=S)nc1C)=C\c1ccccc1`
Output: inactive

Task: Test call for this compound, please: CC(NNC(=O)c1ccc[n+]([BH2-]C#N)c1)c1ccccc1 (stereo not drawn)
Output: inactive

Task: Test call for this compound, please: `O=c1[nH]nc(Cc2ccccc2)n1/N=C/c1cccs1`
Output: inactive

Task: Test call for this compound, please: CC1=NNC(=O)C1C1(C(=O)O)CC(c2c[nH]c3ccccc23)=NC(=S)N1 (stereo not drawn)
Output: inactive

Task: Test call for this compound, please: `Clc1cc2c(c(CSC3=NCN(CC4CC4)CN3)c1)OCOC2`
Output: inactive

Task: Test call for this compound, please: `O=C1NC(=O)C(C(=O)C(=O)Nc2ccc(Br)cc2)C(=O)N1`
Output: inactive

Task: Test call for this compound, please: `Cc1[nH]c2ccccc2c1C1=CC(=O)N(c2ccccc2)C1=O`
Output: inactive

Task: Test call for this compound, please: COc1cc2c(cc1OC)C(C#N)N(C(=O)c1ccccc1)C=C2OC(=O)c1ccccc1 (stereo not drawn)
Output: inactive

Task: Test call for this compound, please: `CNCCCNC1(c2cc3ccccc3s2)CCCCC1`
Output: inactive

Task: Test call for this compound, please: `COc1ccc2[nH]c3c(cnn4cnnc34)c2c1`
Output: inactive

Task: Test call for this compound, please: NC(=O)c1csc(C2CCC(CO)O2)n1 (stereo not drawn)
Output: inactive

Task: Test call for this compound, please: `Nc1nnc(-c2ccco2)c(-c2ccco2)n1`
Output: inactive

Task: Test call for this compound, please: N=C(N)C(/N=N\c1ccccc1)C(=N)N (stereo not drawn)
Output: inactive

Task: Test call for this compound, please: `CCCc1c(Cl)nc(Cl)nc1Cl`
Output: active

Task: Test call for this compound, please: Cc1ccc(S(=O)(=O)N2CCC[C@@H]2C(=O)O[C@@H]2CCC3CC=CC32)cc1 (stereo partly drawn)
Output: inactive

Task: Test call for this compound, please: COc1nc(NC2OC(COC(C)=O)C(OC(C)=O)C(OC(C)=O)C2OC(C)=O)c2c(OC(C)=O)c(C)c(=O)oc2n1 (stereo not drawn)
Output: inactive

Task: Test call for this compound, please: `Clc1cc(-c2ccccc2)nc2ccccc12`
Output: inactive

Task: Test call for this compound, please: `COc1ccc(NC(=O)CC(=O)n2nc(C)c(/N=N/c3cccc(C)c3)c2C)cc1`
Output: inactive

Task: Test call for this compound, please: `Cc1ccc(-c2cc(-c3ccco3)c(C#N)c(=S)[nH]2)cc1`
Output: inactive

Task: Test call for this compound, please: COC1=CC23CCCN2CCc2cc4c(cc2C3C1O)OCO4 (stereo not drawn)
Output: inactive

Task: Test call for this compound, please: `Cc1ccc(NC(=O)CC(=O)n2nc(-c3ccccc3)c(/N=N/c3ccccc3Cl)c2-c2ccccc2)cc1`
Output: inactive

Task: Test call for this compound, please: `CC1=CC(C)(C)[C@H]2O[C@@]3(O)C[C@]4(C)[C@H]5C[C@@](C(C)C)(O[C@H]4c4ccoc4)O[C@H]4[C@]5(C3)O[C@@]1(O)[C@]24O`
Output: inactive

Task: Test call for this compound, please: COc1cc(O)c2c(=O)cc(-c3ccc(O)cc3O)oc2c1CC=C(C)C [ARTOCARPETIN A]
Output: inactive
